# TARGET_OR_TEST_SYSTEM: human OX2R (Homo sapiens)
# Construct: expressed in transfected cells; host or cells: CHO (Chinese hamster ovary) cells, grown under G418 selection
# Sequence (O43614 whole entry): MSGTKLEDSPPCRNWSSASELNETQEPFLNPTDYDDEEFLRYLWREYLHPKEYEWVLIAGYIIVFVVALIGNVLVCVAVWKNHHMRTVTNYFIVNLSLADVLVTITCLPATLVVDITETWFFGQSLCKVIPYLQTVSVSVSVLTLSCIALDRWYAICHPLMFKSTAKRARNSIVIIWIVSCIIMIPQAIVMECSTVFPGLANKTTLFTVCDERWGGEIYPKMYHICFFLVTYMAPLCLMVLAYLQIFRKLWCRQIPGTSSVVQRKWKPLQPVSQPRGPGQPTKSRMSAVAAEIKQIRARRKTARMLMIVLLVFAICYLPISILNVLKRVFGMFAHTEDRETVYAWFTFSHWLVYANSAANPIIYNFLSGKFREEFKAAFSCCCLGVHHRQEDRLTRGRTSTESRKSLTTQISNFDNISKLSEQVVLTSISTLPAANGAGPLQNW
# ASSAY_REMARKS: IPOne (IP-1 accumulation) orexin receptor agonist assay in CHO cells expressing human OX2R
# Format: cell-based
# MEASUREMENT_PARAMETERS: hOX2R IP-One assay, percent of mean max effect of a reference compound at 1 uM with 100% activity established by comparison to Orexin A
MEASUREMENT_NAME: Emax (%)
Return type: number; implicit unit %.

Please review the entries below; each comes with its answer.
INSERT INTO measurements (molecule, target_or_test_system, reading) VALUES
  ('CC(C)OC(=O)N1[C@@H]2CCC[C@@H]2[C@H](NS(C)(=O)=O)[C@@H]1COC1CCN(c2ncc(F)cn2)CC1 [Example 10]', 'human OX2R (Homo sapiens)', 103),
  ('CNS(=O)(=O)N[C@H]1[C@H]2CCC[C@H]2N(C(=O)OC)[C@H]1CO[C@H]1CC[C@@H](c2cccc(F)c2)CC1 [Example 3]', 'human OX2R (Homo sapiens)', 98),
  ('COC(=O)N1[C@@H]2CCC[C@@H]2[C@H](NS(C)(=O)=O)[C@@H]1COC1CCN(c2ncc(F)cn2)CC1 [Example 9]', 'human OX2R (Homo sapiens)', 97),
  ('COC(=O)N1[C@@H]2CCC[C@@H]2[C@H](NS(=O)(=O)N(C)C)[C@@H]1CO[C@H]1CC[C@@H](c2cccc(F)c2)CC1 [Example 2]', 'human OX2R (Homo sapiens)', 101),
  ('COC(=O)N1[C@@H]2CCC[C@@H]2[C@H](NS(=O)(=O)N(C)C)[C@@H]1CO[C@H]1CC[C@@H](c2ccccc2)CC1 [Example 8]', 'human OX2R (Homo sapiens)', 98);

Query: Which value of Emax has been reported for COC(=O)N1[C@@H]2CCC[C@@H]2[C@H](NS(C)(=O)=O)[C@@H]1CO[C@H]1CC[C@@H](c2ccccc2)CC1 [Example 7] in the records?
Reply: 101
